test: Acute toxicity test, intravenous, male Wister-strain rats; conditions: rat, in vivo, intravenous administration, sodium salts, pH 7.0
Structures can show the parent of a compound that is named as a salt.
Below, each entry is listed with its recorded LD50.

CC(=O)NC1C(O)CC(OC(CO)C(O)C2OC(OC(CO)C(O)C3OC(O)(C(=O)O)CC(O)C3NC(C)=O)(C(=O)O)CC(O)C2NC(C)=O)(C(=O)O)OC1C(O)C(O)CO (centres unmarked) [trimer] ... ≥ 2000 mg/kg

Consider the additional compound presented here.
Recorded LD50 of CC(=O)N[C@H]1[C@H]([C@H](O)[C@H](O)CO)OC(O)(C(=O)O)C[C@@H]1O (some centres unmarked) [sodium salts of sialic acid] , please.
≥ 2000 mg/kg
